Measured attribute: pKi
A value of pKi is the negative decimal logarithm of a concentration given in moles per litre.

Write down the reported pKi of `O=C(N[C@H]1CC[C@@]2(O)[C@H]3Cc4ccc(O)c5c4[C@@]2(CCN3CC2CC2)[C@H]1O5)c1cc2ccccc2cn1` , test system: Mu-type opioid receptor (Homo sapiens, UniProt P35372).
Sequence (P35372 whole entry): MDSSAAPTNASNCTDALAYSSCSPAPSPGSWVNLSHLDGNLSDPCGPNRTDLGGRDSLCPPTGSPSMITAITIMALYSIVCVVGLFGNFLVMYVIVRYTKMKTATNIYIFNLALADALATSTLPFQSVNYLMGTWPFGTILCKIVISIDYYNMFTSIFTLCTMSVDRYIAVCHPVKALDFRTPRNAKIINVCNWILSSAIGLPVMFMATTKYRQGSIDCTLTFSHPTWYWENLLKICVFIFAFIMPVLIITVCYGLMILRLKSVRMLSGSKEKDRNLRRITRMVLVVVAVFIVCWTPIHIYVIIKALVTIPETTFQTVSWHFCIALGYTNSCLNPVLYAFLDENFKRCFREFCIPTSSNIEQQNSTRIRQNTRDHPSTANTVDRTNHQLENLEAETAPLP
8.59
